Reference for the values: patent US20240409519A1

# systemTested: dopamine (DA) uptake (Rattus norvegicus)
# Construct: used as crude synaptosomal fraction; from tissue; host or cells: rat striatum, crude synaptosomal fraction
# Sequence (P23977 whole entry): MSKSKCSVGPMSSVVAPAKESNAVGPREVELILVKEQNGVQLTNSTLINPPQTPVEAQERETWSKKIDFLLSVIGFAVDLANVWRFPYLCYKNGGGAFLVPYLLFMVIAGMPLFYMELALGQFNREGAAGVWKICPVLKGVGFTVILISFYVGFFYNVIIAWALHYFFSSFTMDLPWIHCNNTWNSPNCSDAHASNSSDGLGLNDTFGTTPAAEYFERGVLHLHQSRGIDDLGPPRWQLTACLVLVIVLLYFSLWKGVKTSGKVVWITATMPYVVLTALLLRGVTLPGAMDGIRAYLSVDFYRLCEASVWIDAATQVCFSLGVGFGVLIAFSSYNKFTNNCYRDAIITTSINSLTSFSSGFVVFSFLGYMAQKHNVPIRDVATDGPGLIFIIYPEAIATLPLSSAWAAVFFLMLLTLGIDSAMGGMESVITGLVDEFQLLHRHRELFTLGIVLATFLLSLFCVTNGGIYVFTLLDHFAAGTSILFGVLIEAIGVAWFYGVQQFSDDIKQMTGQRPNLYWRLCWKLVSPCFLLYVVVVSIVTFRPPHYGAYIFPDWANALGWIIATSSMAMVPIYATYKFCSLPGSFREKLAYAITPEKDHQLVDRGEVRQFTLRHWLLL
# protocolDescription: Dopamine (DA) uptake inhibitory activity using rat brain synaptosome
# Assay type: biochemical
# cond: rat striatum synaptosome, tritium-labeled DA 2 nM; read-out: IC50 (nM), dopamine (DA) uptake inhibition
propertyName: log10 of IC50 (log10 of the value in nM)
// do not treat as linear: log10 of IC50, unit nM

Sample answers from the record:
querySmiles	propertyName	recordedResult
Cc1c(N2CC(C)(C)N[C@@H]3CCCC[C@@H]32)ccc(OC(F)(F)CO)c1F	log10 of IC50	1.94
OCCOc1ccc(N2CC3(CCC3)N[C@H]3CCCC[C@@H]32)cc1	log10 of IC50	1.69
CC1(C)CN(c2ccc(OCCO)c(Cl)c2)[C@H]2CCCC[C@H]2N1	log10 of IC50	1.57
Cc1cc(N2CC3(CCC3)N[C@H]3CCCC[C@@H]32)cc(F)c1OCCO	log10 of IC50	0.74
Cc1cc(N2CC(C)(C)N[C@@H]3CCCC[C@@H]32)ccc1OC(F)(F)CO	log10 of IC50	1.84
COc1cc(N2CC(C)(C)N[C@H]3CCCC[C@@H]32)ccc1OC(F)(F)CO	log10 of IC50	2.33
CC1(C)CN(c2cc(Br)c(OCCO)cc2F)[C@H]2CCCC[C@H]2N1	log10 of IC50	2.44
OCCOc1c(F)cc(N2CC3(CCC3)N[C@H]3CCCC[C@@H]32)cc1Cl	log10 of IC50	0.76
Cc1c(OC(F)(F)CO)ccc(N2CC(C)(C)N[C@H]3CCCC[C@@H]32)c1F	log10 of IC50	2.35
CC1(C)CN(c2cc(F)c(OCCO)c(F)c2)[C@H]2CCCC[C@@H]2N1	log10 of IC50	1.86

Continue with the compound presented below.
Task: Could you tell me which log10 of IC50 is on file for "CC1(C)CN(c2cc(F)c(OC(F)(F)CO)cc2F)[C@H]2CCCC[C@H]2N1" ?
Result: 1.91

###

# protocolDescription: Protein binding rate test (human serum, equilibrium dialysis)
# Format: in vitro ADME
# cond: test compound 0.001 mmol/L, equilibrium dialysis 37° C. 6 hours
propertyName: fraction unbound at 6 h, 0.001 mmol/L
Quick one: just the number, no unit, thanks!

Sample answers from the record:
querySmiles	propertyName	recordedResult
Cc1c(OC(F)(F)CO)ccc(N2CC(C)(C)N[C@@H]3CCCC[C@@H]32)c1F	fraction unbound at 6 h, 0.001 mmol/L	0.195
CC1(C)CN(c2cc(F)c(OCCO)cc2F)[C@H]2CCCC[C@H]2N1	fraction unbound at 6 h, 0.001 mmol/L	0.766
CC1(C)CN(c2ccc(OC(F)(F)CO)cc2F)[C@H]2CCCC[C@H]2N1	fraction unbound at 6 h, 0.001 mmol/L	0.337
COc1cc(N2CC3(CCC3)N[C@H]3CCCC[C@@H]32)ccc1OCCO	fraction unbound at 6 h, 0.001 mmol/L	0.767
CC1(C)CN(c2ccc(OCCO)c(Cl)c2)[C@H]2CCCC[C@H]2N1	fraction unbound at 6 h, 0.001 mmol/L	0.566

Task: Could you tell me which fraction unbound at 6 h, 0.001 mmol/L is on file for "Cc1cc(N2CC(C)(C)N[C@@H]3CCCC[C@@H]32)ccc1OC(F)(F)CO" ?
Result: 0.413

Task: Could you tell me which fraction unbound at 6 h, 0.001 mmol/L is on file for "Cc1cc(N2CC3(CCC3)N[C@H]3CCCC[C@@H]32)cc(F)c1OCCO" ?
Result: 0.615

Task: Could you tell me which fraction unbound at 6 h, 0.001 mmol/L is on file for "CC1(C)CN(c2ccc(OCCO)c(Br)c2F)[C@H]2CCCC[C@H]2N1" ?
Result: 0.261

Task: Could you tell me which fraction unbound at 6 h, 0.001 mmol/L is on file for "OCCOc1ccc(N2CC3(CCC3)N[C@H]3CCCC[C@@H]32)cc1" ?
Result: 0.686

Task: Could you tell me which fraction unbound at 6 h, 0.001 mmol/L is on file for "CC1(C)CN(c2ccc(OCCO)c(F)c2)[C@H]2CCCC[C@H]2N1" ?
Result: 0.73

Task: Could you tell me which fraction unbound at 6 h, 0.001 mmol/L is on file for "CC1(C)CN(c2cc(F)c(OCCO)c(F)c2)[C@@H]2CCCC[C@H]2N1" ?
Result: 0.776

Task: Could you tell me which fraction unbound at 6 h, 0.001 mmol/L is on file for "CC1(C)CN(c2ccc(OC(F)(F)CO)cc2)[C@H]2CCCC[C@@H]2N1" ?
Result: 0.569
